Parameter: k = kobserved - kthermic, Par14 (Par17Δ1-25). Scope: all listed entries.
tested.on: Par14 (Par17Δ1-25) (Homo sapiens, UniProt Q9Y237)
Construct: Comparison of spectra of full‐length parvulin proteins and PPIase domain; GST-His6 (PreScission site) (N, cleaved yes); made in house; host or cells: E. coli BL21 (DE3) T1r
Sequence (Q9Y237 whole entry, stated change not applied, the tested form may be a part): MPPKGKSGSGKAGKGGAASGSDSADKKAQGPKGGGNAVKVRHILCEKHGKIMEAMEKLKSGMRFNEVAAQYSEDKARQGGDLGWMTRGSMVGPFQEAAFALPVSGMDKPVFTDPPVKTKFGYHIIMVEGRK
protocol.summary: Protease-coupled isomerase assay (PPIase assay) with Par14
Assay type: biochemical
protocol.conditions: α-chymotrypsin 35 μM, PBS pH 6.8, 10°C, substrate 75 μM, PPIase 2 μM, absorbance 390 nm; mean ± SD
Starred links: 1 amine or outer side, 2 acyl side, 3 side chain; linkers in the order of their positions; H or OH if unused. Residues, ends and D or L forms follow the SMILES beside them. *: point of attachment. pNA = O=[N+]([O-])c1ccc(N*)cc1; Suc = O=C(CCC(=O)[*:2])[*:1]
experimental.endpoint: k = kobserved - kthermic, Par14 (Par17Δ1-25) (min⁻¹)

{"compound": "C[C@H](NC(=O)CCC(=O)O)C(=O)N[C@@H](CCC(=O)O)C(=O)N1CCC[C@H]1C(=O)N[C@@H](Cc1ccccc1)C(=O)Nc1ccc([N+](=O)[O-])cc1 [Glu, Suc–Ala–Glu–Pro–Phe–pNa] (Suc-AEPF-pNA)", "tested.on": "Par14 (Par17Δ1-25) (Homo sapiens, UniProt Q9Y237)", "unit.label": "min⁻¹", "test.result": 0.267}
{"compound": "C[C@H](NC(=O)CCC(=O)O)C(=O)NCC(=O)N1CCC[C@H]1C(=O)N[C@@H](Cc1ccccc1)C(=O)Nc1ccc([N+](=O)[O-])cc1 [Gly, Suc‐Ala‐Gly‐Pro‐Phe‐pNa] (Suc-AGPF-pNA)", "tested.on": "Par14 (Par17Δ1-25) (Homo sapiens, UniProt Q9Y237)", "unit.label": "min⁻¹", "test.result": 0.390}
{"compound": "CC(C)[C@H](NC(=O)[C@H](C)NC(=O)CCC(=O)O)C(=O)N1CCC[C@H]1C(=O)N[C@@H](Cc1ccccc1)C(=O)Nc1ccc([N+](=O)[O-])cc1 [Val, Suc‐Ala‐Val‐Pro‐Phe‐pNa] (Suc-AVPF-pNA)", "tested.on": "Par14 (Par17Δ1-25) (Homo sapiens, UniProt Q9Y237)", "unit.label": "min⁻¹", "test.result": 0.408}
{"compound": "C[C@H](NC(=O)CCC(=O)O)C(=O)N[C@@H](CCCNC(=N)N)C(=O)N1CCC[C@H]1C(=O)N[C@@H](Cc1ccccc1)C(=O)Nc1ccc([N+](=O)[O-])cc1 [Arg, Suc‐Ala‐Arg‐Pro‐Phe‐pNa] (Suc-ARPF-pNA)", "tested.on": "Par14 (Par17Δ1-25) (Homo sapiens, UniProt Q9Y237)", "unit.label": "min⁻¹", "test.result": 0.582}
{"compound": "C[C@H](NC(=O)CCC(=O)O)C(=O)N[C@@H](CCCCN)C(=O)N1CCC[C@H]1C(=O)N[C@@H](Cc1ccccc1)C(=O)Nc1ccc([N+](=O)[O-])cc1", "tested.on": "Par14 (Par17Δ1-25) (Homo sapiens, UniProt Q9Y237)", "unit.label": "min⁻¹", "test.result": 0.412}

The reported measurements were obtained from paper PMC12314576.
